B1: SMG5 (parent)
chain: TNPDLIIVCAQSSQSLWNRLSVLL

Variants of: B1
Assay: protein stability index of a GFP-peptide fusion (GPS, HEK-293T) (PSI 1-6); higher = more stable;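 further: lentivirally expressed fusions sorted by FACS into six bins by GFP to DsRed ratio, PSI derived from sequencing read proportions per bin multiplied by bin number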
Settings: c terminus: a fixed tail appended
PROPERTY: protein stability index
Respond using a number only.

Known protein stability index results, listed for orientation:
{"RESIDUE CHANGE": "N2E", "protein stability index": 2.26}
{"RESIDUE CHANGE": "P3G", "protein stability index": 3.64}
{"RESIDUE CHANGE": "L23E", "protein stability index": 2.75}
{"RESIDUE CHANGE": "V8G", "protein stability index": 2.27}
{"RESIDUE CHANGE": "I7F", "protein stability index": 1.45}
{"RESIDUE CHANGE": "S15Y", "protein stability index": 2.49}

Would you kindly look at the next entry?
What measured protein stability index goes with "L24S" ?
1.38
